Source: paper PMC3767324

target: bovine serum albumin (BSA) (Bos taurus); construct: Bovine serum albumin (BSA), one of the major components in plasma protein; purchased Sigma Aldrich Bangalore; experiment: energy transfer from BSA to compound (Forster theory); assay type: binding
Please respond with reported E (efficiency of energy transfer) for every item in the list.
Numbers only.

Check out these entries, answers already filled in.
Substance Smiles	E (efficiency of energy transfer)
CC(=O)N(C(=O)c1ccc(O)cc1)c1ccc(N=Cc2cc3ccccc3o2)cc1	0.14
COc1ccc(C(=O)N(C(C)=O)c2ccc(N=Cc3cc4ccccc4o3)cc2)cc1	0.33
CC(=O)N(C(=O)c1cc(F)ccc1F)c1ccc(N=Cc2cc3ccccc3o2)cc1	0.11
CC(=O)N(C(=O)c1cc(F)c(F)c(F)c1)c1ccc(N=Cc2cc3ccccc3o2)cc1	0.31
CC(=O)N(C(=O)c1ccccc1)c1ccc(N=Cc2cc3ccccc3o2)cc1	0.14

# ---- query compound ----
[ask] Query E (efficiency of energy transfer) on bovine serum albumin (BSA) (Bos taurus) for CC(=O)N(C(=O)c1cc(F)cc(F)c1)c1ccc(N=Cc2cc3ccccc3o2)cc1
[reply] 0.15

----------
tested on: Bacillus subtilis (NCIM 2999); assay: minimum inhibitory concentration by dilution method; type: cell-based; conditions: Bacillus subtilis, NCIM2999
Quantity Name: MIC (µg/mL)
One number for each entry, in µg/mL.

Check out these entries, answers already filled in.
Substance Smiles	Unit Tag	MIC
CC(=O)N(C(=O)c1cc(F)cc(F)c1)c1ccc(N=Cc2cc3ccccc3o2)cc1	µg/mL	12.4
CC(=O)N(C(=O)c1cc(F)c(F)c(F)c1)c1ccc(N=Cc2cc3ccccc3o2)cc1	µg/mL	10
CC(=O)N(C(=O)c1ccccc1)c1ccc(N=Cc2cc3ccccc3o2)cc1	µg/mL	35
CC(=O)N(C(=O)c1ccc(O)cc1)c1ccc(N=Cc2cc3ccccc3o2)cc1	µg/mL	35

Please state MIC for every molecule in the list that follows.
1. CC(=O)N(C(=O)c1cc(F)ccc1F)c1ccc(N=Cc2cc3ccccc3o2)cc1
2. COc1ccc(C(=O)N(C(C)=O)c2ccc(N=Cc3cc4ccccc4o3)cc2)cc1

[reply]
1: 12; 2: 50

----------
Target: bovine serum albumin (BSA) (Bos taurus, UniProt P02769)
Construct: Bovine serum albumin (BSA), one of the major components in plasma protein; purchased Sigma Aldrich Bangalore
Sequence (P02769 25-607): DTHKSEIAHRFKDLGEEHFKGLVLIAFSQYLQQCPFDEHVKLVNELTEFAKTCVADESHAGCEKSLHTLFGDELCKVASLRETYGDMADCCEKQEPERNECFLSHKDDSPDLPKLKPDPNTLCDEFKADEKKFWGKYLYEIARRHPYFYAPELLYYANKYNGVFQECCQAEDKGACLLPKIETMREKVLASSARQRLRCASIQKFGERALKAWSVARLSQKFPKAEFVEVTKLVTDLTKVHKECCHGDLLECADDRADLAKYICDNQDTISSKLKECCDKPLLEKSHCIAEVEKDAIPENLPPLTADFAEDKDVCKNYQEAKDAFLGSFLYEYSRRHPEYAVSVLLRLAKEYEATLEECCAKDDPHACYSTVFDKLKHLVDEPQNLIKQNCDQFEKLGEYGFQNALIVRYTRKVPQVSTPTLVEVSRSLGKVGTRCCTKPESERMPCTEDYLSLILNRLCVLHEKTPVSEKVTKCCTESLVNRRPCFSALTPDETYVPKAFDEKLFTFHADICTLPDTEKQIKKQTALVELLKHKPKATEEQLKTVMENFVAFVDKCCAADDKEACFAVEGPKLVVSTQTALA
Assay: energy transfer from BSA to compound (Forster theory)
Format: binding
Details: BSA emission / compound UV absorption
Source text: The binding distance (r) between a protein residue (donor) and a bound drug molecule (acceptor) can be calculated from Foster's nonradiative energy transfer theory. […]
Quantity Name: J (spectral overlap)

Substance Smiles	Assayed Target	J (spectral overlap)
CC(=O)N(C(=O)c1ccc(O)cc1)c1ccc(N=Cc2cc3ccccc3o2)cc1	bovine serum albumin (BSA) (Bos taurus, UniProt P02769)	4.26 × 10^−14 cm^3 L mol^−1
COc1ccc(C(=O)N(C(C)=O)c2ccc(N=Cc3cc4ccccc4o3)cc2)cc1	bovine serum albumin (BSA) (Bos taurus, UniProt P02769)	2.79 × 10^−14 cm^3 L mol^−1
CC(=O)N(C(=O)c1ccccc1)c1ccc(N=Cc2cc3ccccc3o2)cc1	bovine serum albumin (BSA) (Bos taurus, UniProt P02769)	3.05 × 10^−14 cm^3 L mol^−1
CC(=O)N(C(=O)c1cc(F)ccc1F)c1ccc(N=Cc2cc3ccccc3o2)cc1	bovine serum albumin (BSA) (Bos taurus, UniProt P02769)	1.05 × 10^−14 cm^3 L mol^−1
CC(=O)N(C(=O)c1cc(F)c(F)c(F)c1)c1ccc(N=Cc2cc3ccccc3o2)cc1	bovine serum albumin (BSA) (Bos taurus, UniProt P02769)	2.37 × 10^−14 cm^3 L mol^−1

# ---- query compound ----
[ask] Quick one: J (spectral overlap) of CC(=O)N(C(=O)c1cc(F)cc(F)c1)c1ccc(N=Cc2cc3ccccc3o2)cc1 ?
[reply] 4.91 × 10^−14 cm^3 L mol^−1
